Cited source for all entries: paper PMC10424242

Measured pIC50, listed per entry for reference.
TEST TARGET: PMIV (Plasmodium falciparum, UniProt Q8IM16)
Sequence (Q8IM16 122-449): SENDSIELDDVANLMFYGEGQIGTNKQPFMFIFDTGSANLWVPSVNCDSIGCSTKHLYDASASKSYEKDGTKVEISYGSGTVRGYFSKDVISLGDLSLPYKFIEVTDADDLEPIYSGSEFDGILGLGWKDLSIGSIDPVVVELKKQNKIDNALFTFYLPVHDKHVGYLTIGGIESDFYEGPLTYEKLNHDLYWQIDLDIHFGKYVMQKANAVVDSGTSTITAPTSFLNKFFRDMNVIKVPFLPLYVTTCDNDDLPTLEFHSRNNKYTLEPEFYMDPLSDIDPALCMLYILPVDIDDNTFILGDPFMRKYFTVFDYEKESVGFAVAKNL
EXPERIMENT SUMMARY: FRET-based PMIV inhibition assay
Format: biochemical, P. falciparum
pIC50: −log10 of the molar value.
ENDPOINT: pIC50

1) COc1cccc(C(C)(C)NC[C@@H](O)[C@@H]2Cc3cccc(c3)OCCCCN(CCC(F)(F)F)C(=O)c3cccc(c3)C(=O)N2)c1: 6.77
2) COc1cccc(C(C)(C)NC[C@@H](O)[C@@H]2Cc3cccc(c3)OCCCCN(CC(C)(C)C)C(=O)c3cccc(c3)C(=O)N2)c1: 7.21
3) COc1cccc(C(C)(C)NC[C@@H](O)[C@@H]2Cc3cccc(c3)OCCCCN(C)C(=O)c3cccc(c3)C(=O)N2)c1: 6.29
4) COc1cccc(C(C)(C)NC[C@@H](O)[C@@H]2Cc3cccc(c3)OCCCCNC(=O)c3cccc(c3)C(=O)N2)c1: 7.22
5) COc1cccc(C(C)(C)NC[C@@H](O)[C@@H]2Cc3cccc(c3)OCCCCN(CCN(C)C)C(=O)c3cccc(c3)C(=O)N2)c1: 7.40

* * *

EXPERIMENT SUMMARY: Plasma protein binding (rapid equilibrium dialysis)
Format: in vitro ADME
CONDITIONS: pH 7.4, mouse plasma, 2 h at 37 °C
Protocol: Plasma protein binding was performed with rapid equilibrium dialysis (RED) device inserts containing a dialysis membrane with a molecular weight cut-off of 8000 Daltons. Inserts were placed in the single-use RED plate without prior preparation. The test compound at a concentration of 5 μM was added to mouse plasma and dialyzed against phosphate-buffered saline (PBS, pH 7.4) for 2 h at 37 °C. […]
Response field class: enum, chosen by comparing fraction unbound at 2 h, 5 µM against range A: < 0.008; range B: ≥ 0.008 and < 0.03; range C: ≥ 0.03

1. COc1cccc(C(C)(C)NC[C@@H](O)[C@@H]2Cc3cccc(c3)OCCCCN(CCN(C)C)C(=O)c3cccc(c3)C(=O)N2)c1: range C
2. CCCN1CCOc2cccc(c2)C[C@@H]([C@H](O)CNC(C)(C)c2cccc(OC)c2)NC(=O)c2cccc(c2)C1=O: range C
3. CCCN(CCC)C(=O)c1cccc(C(=O)N[C@@H](Cc2ccccc2)[C@H](O)CNC(C)(C)c2cccc(OC)c2)c1: range B
4. COc1cccc(C(C)(C)NC[C@@H](O)[C@@H]2Cc3cccc(c3)OCCCCNC(=O)c3cccc(c3)C(=O)N2)c1: range B
5. CCCN1CCCCCc2cccc(c2)C[C@@H]([C@H](O)CNC(C)(C)c2cccc(OC)c2)NC(=O)c2cccc(c2)C1=O: range A
6. COc1cccc(C(C)(C)NC[C@@H](O)[C@@H]2Cc3cccc(c3)OCCCCN(CCC(F)(F)F)C(=O)c3cccc(c3)C(=O)N2)c1: range B
7. COc1cccc(C(C)(C)NC[C@@H](O)[C@@H]2Cc3cccc(c3)OCCCCN(CC(C)(C)C)C(=O)c3cccc(c3)C(=O)N2)c1: range A
8. COc1cccc(C(C)(C)NC[C@@H](O)[C@@H]2Cc3cccc(c3)OCCCCN(C)C(=O)c3cccc(c3)C(=O)N2)c1: range C
9. CCCN1CCCCOc2cccc(c2)C[C@@H]([C@H](O)CNC(C)(C)c2cccc(OC)c2)NC(=O)c2cccc(c2)C1=O: range B
10. CCCN1CCOCCc2cccc(c2)C[C@@H]([C@H](O)CNC(C)(C)c2cccc(OC)c2)NC(=O)c2cccc(c2)C1=O: range B
11. CCCN1CCCCc2cccc(c2)C[C@@H]([C@H](O)CNC(C)(C)c2cccc(OC)c2)NC(=O)c2cccc(c2)C1=O: range A

* * *

EXPERIMENT SUMMARY: Liver microsomal metabolic stability
Assay type: in vitro ADME, mouse
CONDITIONS: pooled liver microsomes, pH 7.4; mouse liver microsomes, 5 μM
ENDPOINT: half-life at 1 h, 5 μM (min)

1. COc1cccc(C(C)(C)NC[C@@H](O)[C@@H]2Cc3cccc(c3)OCCCCNC(=O)c3cccc(c3)C(=O)N2)c1: 31.3
2. CCCN1CCCCc2cccc(c2)C[C@@H]([C@H](O)CNC(C)(C)c2cccc(OC)c2)NC(=O)c2cccc(c2)C1=O: 14.4
3. CCCN1CCOCCc2cccc(c2)C[C@@H]([C@H](O)CNC(C)(C)c2cccc(OC)c2)NC(=O)c2cccc(c2)C1=O: 8.39
4. CCCN1CCCCOc2cccc(c2)C[C@@H]([C@H](O)CNC(C)(C)c2cccc(OC)c2)NC(=O)c2cccc(c2)C1=O: 8.67
5. COc1cccc(C(C)(C)NC[C@@H](O)[C@@H]2Cc3cccc(c3)OCCCCN(CCC(F)(F)F)C(=O)c3cccc(c3)C(=O)N2)c1: 20.4
6. CCCN(CCC)C(=O)c1cccc(C(=O)N[C@@H](Cc2ccccc2)[C@H](O)CNC(C)(C)c2cccc(OC)c2)c1: 6.4
7. CCCN1CCCCCc2cccc(c2)C[C@@H]([C@H](O)CNC(C)(C)c2cccc(OC)c2)NC(=O)c2cccc(c2)C1=O: 16.9

* * *

TEST TARGET: BACE1 (Homo sapiens)
Sequence (P56817 46-501): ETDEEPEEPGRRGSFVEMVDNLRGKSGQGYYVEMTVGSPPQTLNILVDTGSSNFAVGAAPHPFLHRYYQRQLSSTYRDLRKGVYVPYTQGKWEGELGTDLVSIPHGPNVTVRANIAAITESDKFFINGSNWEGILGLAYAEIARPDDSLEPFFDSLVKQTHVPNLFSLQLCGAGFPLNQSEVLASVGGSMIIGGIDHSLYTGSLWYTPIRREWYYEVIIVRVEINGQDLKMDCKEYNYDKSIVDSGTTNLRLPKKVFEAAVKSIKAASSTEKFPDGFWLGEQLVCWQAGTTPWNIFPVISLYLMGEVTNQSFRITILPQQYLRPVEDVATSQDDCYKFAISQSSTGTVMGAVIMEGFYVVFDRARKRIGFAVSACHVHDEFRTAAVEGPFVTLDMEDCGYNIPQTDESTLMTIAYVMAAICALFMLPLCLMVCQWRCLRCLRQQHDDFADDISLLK
EXPERIMENT SUMMARY: FRET-based BACE1 inhibition assay (selectivity counter screen)
Assay type: biochemical
ENDPOINT: IC50 (nM)

1. COc1cccc(C(C)(C)NC[C@@H](O)[C@@H]2Cc3cccc(c3)OCCCCN(C)C(=O)c3cccc(c3)C(=O)N2)c1: 1030
2. COc1cccc(C(C)(C)NC[C@@H](O)[C@@H]2Cc3cccc(c3)OCCCCNC(=O)c3cccc(c3)C(=O)N2)c1: 910
3. COc1cccc(C(C)(C)NC[C@@H](O)[C@@H]2Cc3cccc(c3)OCCCCN(CCC(F)(F)F)C(=O)c3cccc(c3)C(=O)N2)c1: 2100
4. CCCN1CCOCCc2cccc(c2)C[C@@H]([C@H](O)CNC(C)(C)c2cccc(OC)c2)NC(=O)c2cccc(c2)C1=O: 22700

* * *

Measured log10(IC50), listed per entry for reference.
TEST TARGET: UniProt P56817
EXPERIMENT SUMMARY: FRET-based BACE1 inhibition assay (selectivity counter screen)
Assay type: biochemical
ENDPOINT: log10(IC50) (log10 of the value in nM)

1. COc1cccc(C(C)(C)NC[C@@H](O)[C@@H]2Cc3cccc(c3)OCCCCN(CC(C)(C)C)C(=O)c3cccc(c3)C(=O)N2)c1: 3.28
2. CCCN1CCOc2cccc(c2)C[C@@H]([C@H](O)CNC(C)(C)c2cccc(OC)c2)NC(=O)c2cccc(c2)C1=O: 3.27
3. CCCN1CCCCc2cccc(c2)C[C@@H]([C@H](O)CNC(C)(C)c2cccc(OC)c2)NC(=O)c2cccc(c2)C1=O: 3.48
4. CCCN1CCCCOc2cccc(c2)C[C@@H]([C@H](O)CNC(C)(C)c2cccc(OC)c2)NC(=O)c2cccc(c2)C1=O: 2.58
5. CCCN1CCCCCc2cccc(c2)C[C@@H]([C@H](O)CNC(C)(C)c2cccc(OC)c2)NC(=O)c2cccc(c2)C1=O: 3.31
6. COc1cccc(C(C)(C)NC[C@@H](O)[C@@H]2Cc3cccc(c3)OCCCCN(CCN(C)C)C(=O)c3cccc(c3)C(=O)N2)c1: 4.72
7. CCCN1CCCCCOc2cccc(c2)C[C@@H]([C@H](O)CNC(C)(C)c2cccc(OC)c2)NC(=O)c2cccc(c2)C1=O: 3.78

* * *

TEST TARGET: recombinant P. falciparum PMX (Plasmodium falciparum)
Sequence (Q8IAS0 222-573): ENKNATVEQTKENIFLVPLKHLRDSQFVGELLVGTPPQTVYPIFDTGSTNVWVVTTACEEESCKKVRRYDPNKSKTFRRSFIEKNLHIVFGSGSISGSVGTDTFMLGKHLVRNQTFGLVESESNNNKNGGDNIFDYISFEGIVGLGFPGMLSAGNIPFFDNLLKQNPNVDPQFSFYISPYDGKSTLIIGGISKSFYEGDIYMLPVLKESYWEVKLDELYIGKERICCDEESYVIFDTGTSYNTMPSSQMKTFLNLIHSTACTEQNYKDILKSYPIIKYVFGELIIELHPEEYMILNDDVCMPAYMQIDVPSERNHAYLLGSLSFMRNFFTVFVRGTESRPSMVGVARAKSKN
EXPERIMENT SUMMARY: Recombinant P. falciparum PMX inhibition assay (fluorogenic substrate Rh2N)
Format: biochemical
CONDITIONS: Table 3; read-out: PMX, nM (as listed in Table 3)
Measured IC50, listed per entry for reference.
ENDPOINT: IC50

1) CCCN1CCCCCc2cccc(c2)C[C@@H]([C@H](O)CNC(C)(C)c2cccc(OC)c2)NC(=O)c2cccc(c2)C1=O [7k]: 0.4 nM
2) CCCN1CCOCCc2cccc(c2)C[C@@H]([C@H](O)CNC(C)(C)c2cccc(OC)c2)NC(=O)c2cccc(c2)C1=O [7i]: 4.6 nM
3) CCCN1CCCCCOc2cccc(c2)C[C@@H]([C@H](O)CNC(C)(C)c2cccc(OC)c2)NC(=O)c2cccc(c2)C1=O [7g]: 6.9 nM
4) CCCN1CCCCc2cccc(c2)C[C@@H]([C@H](O)CNC(C)(C)c2cccc(OC)c2)NC(=O)c2cccc(c2)C1=O [7j]: 3.8 nM
5) CCCN1CCOc2cccc(c2)C[C@@H]([C@H](O)CNC(C)(C)c2cccc(OC)c2)NC(=O)c2cccc(c2)C1=O [7h]: 6.8 nM

* * *

TEST TARGET: cathepsin D (CatD) (Homo sapiens, UniProt P07339)
Sequence (P07339 65-412): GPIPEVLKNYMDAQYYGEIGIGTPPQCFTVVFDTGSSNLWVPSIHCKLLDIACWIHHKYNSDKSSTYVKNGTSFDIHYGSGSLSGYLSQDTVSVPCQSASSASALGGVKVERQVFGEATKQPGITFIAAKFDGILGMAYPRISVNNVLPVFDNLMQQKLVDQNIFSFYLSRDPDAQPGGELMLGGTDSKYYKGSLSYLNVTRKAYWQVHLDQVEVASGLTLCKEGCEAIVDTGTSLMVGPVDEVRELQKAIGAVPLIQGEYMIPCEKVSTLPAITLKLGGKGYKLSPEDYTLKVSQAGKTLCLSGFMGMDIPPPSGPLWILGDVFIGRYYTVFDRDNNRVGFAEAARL
EXPERIMENT SUMMARY: FRET-based CatD inhibition assay (selectivity counter screen)
Type: biochemical
ENDPOINT: IC50 (nM)

1. COc1cccc(C(C)(C)NC[C@@H](O)[C@@H]2Cc3cccc(c3)OCCCCN(CCN(C)C)C(=O)c3cccc(c3)C(=O)N2)c1 [7f]: 6800
2. CCCN1CCCCCc2cccc(c2)C[C@@H]([C@H](O)CNC(C)(C)c2cccc(OC)c2)NC(=O)c2cccc(c2)C1=O [7k]: 330
3. CCCN1CCCCOc2cccc(c2)C[C@@H]([C@H](O)CNC(C)(C)c2cccc(OC)c2)NC(=O)c2cccc(c2)C1=O [7a]: 270
4. COc1cccc(C(C)(C)NC[C@@H](O)[C@@H]2Cc3cccc(c3)OCCCCN(CCC(F)(F)F)C(=O)c3cccc(c3)C(=O)N2)c1 [7d]: 230
